- Substrate: CP C3-convertase (C4b2a) (UniProt P0C0L4)
- Sequence (P0C0L4 757-1446 limits assumed, chain 1 of 4): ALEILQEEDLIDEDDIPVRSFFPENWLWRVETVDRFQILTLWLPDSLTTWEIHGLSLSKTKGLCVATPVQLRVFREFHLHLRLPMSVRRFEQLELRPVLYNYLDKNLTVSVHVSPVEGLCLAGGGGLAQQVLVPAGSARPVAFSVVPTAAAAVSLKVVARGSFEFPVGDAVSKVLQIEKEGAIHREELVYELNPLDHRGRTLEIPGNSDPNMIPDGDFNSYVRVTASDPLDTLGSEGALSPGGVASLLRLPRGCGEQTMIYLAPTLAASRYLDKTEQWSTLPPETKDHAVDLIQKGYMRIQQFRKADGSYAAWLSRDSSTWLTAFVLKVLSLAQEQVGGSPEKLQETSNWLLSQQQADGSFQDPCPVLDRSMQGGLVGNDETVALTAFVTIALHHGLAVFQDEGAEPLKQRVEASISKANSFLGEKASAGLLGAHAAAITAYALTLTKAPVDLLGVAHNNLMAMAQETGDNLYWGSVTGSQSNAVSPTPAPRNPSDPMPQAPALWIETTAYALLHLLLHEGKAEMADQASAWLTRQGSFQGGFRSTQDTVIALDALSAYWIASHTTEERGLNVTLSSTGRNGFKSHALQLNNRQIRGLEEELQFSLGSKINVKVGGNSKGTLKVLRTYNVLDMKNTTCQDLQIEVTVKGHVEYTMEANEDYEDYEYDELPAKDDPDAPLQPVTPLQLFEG
- Sequence (P0C0L4 20-675 limits assumed, chain 2 of 4): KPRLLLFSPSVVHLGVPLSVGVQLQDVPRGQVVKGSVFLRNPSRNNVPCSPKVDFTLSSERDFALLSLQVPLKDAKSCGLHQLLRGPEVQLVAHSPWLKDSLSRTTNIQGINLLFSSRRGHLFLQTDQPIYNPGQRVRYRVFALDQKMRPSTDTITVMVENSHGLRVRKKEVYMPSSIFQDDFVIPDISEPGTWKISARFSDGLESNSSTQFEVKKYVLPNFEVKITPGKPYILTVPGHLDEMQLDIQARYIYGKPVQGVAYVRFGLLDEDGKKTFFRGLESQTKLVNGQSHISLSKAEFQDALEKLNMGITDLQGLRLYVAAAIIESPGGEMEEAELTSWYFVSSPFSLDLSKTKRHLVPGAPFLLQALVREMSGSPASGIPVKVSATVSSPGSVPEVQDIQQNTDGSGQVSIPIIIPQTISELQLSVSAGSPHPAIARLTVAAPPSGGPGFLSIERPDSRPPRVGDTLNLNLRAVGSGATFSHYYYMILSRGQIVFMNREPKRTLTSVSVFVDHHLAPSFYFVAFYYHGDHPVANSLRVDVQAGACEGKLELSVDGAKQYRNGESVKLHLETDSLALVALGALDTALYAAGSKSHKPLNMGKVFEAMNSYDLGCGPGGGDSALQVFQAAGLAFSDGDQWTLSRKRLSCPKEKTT
- Sequence (P0C0L4 1454-1744 limits assumed, chain 3 of 4): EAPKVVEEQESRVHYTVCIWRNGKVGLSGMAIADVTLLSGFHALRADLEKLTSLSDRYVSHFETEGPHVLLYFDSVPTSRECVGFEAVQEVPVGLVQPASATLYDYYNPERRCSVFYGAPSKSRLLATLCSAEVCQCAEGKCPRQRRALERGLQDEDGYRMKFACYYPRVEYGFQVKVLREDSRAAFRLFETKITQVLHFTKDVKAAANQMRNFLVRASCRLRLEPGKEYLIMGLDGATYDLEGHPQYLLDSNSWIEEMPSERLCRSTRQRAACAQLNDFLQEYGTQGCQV
- Sequence (P06681 244-752 limits assumed, chain 4 of 4, further chain): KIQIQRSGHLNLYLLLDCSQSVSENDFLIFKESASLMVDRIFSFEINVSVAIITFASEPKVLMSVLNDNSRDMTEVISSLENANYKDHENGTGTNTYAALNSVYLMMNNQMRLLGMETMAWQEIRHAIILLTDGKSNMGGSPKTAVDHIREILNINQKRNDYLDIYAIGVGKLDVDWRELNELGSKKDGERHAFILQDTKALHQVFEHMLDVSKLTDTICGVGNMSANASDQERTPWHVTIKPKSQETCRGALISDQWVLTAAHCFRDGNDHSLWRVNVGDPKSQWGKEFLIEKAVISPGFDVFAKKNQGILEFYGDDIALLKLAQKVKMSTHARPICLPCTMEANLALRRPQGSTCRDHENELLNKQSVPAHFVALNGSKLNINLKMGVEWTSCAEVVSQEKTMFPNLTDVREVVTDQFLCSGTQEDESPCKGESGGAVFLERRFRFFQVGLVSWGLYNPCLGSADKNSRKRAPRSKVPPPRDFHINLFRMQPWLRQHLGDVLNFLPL
- protocol description: cell-based or functional assay
measurement label: Relative CP-DAA
Provide a numeric answer; units are not to be included.

Below are worked cases with known answers.
- binder: "D2D3M3M4 (T200Y) (protein) CEVPTRLNSASLKQPYITQNYFPVGTVVEYECRPGYRREPSLSPKLTCLQNLKWSTAVEFCKKKSCPNPGEIRNGQIDVPGGILFGATISFSCNTGYKLFGSYSSFCLISGSSVQWSDPLPECREIYCTPPPKIKNGKHTFSEVEVFEYLDAVTYSCDPAPGPDPFSLIGESTIYCGDNSVWSRAAPECKVVKCRFPVVENGKQISGFGKKFYYKATVMFECDKGFYLDGSDTIVCDSNSTWDPPVPKCLKVL"
  reading: 0.9
- binder: "D2D3M3M4 (P216K) (protein) CEVPTRLNSASLKQPYITQNYFPVGTVVEYECRPGYRREPSLSPKLTCLQNLKWSTAVEFCKKKSCPNPGEIRNGQIDVPGGILFGATISFSCNTGYKLFGSTSSFCLISGSSVQWSDKLPECREIYCTPPPKIKNGKHTFSEVEVFEYLDAVTYSCDPAPGPDPFSLIGESTIYCGDNSVWSRAAPECKVVKCRFPVVENGKQISGFGKKFYYKATVMFECDKGFYLDGSDTIVCDSNSTWDPPVPKCLKVL"
  reading: 0.75

Now turn to the next binder.
query: Tell me the measured Relative CP-DAA of D2D3M3M4 (F197I) (protein) CEVPTRLNSASLKQPYITQNYFPVGTVVEYECRPGYRREPSLSPKLTCLQNLKWSTAVEFCKKKSCPNPGEIRNGQIDVPGGILFGATISFSCNTGYKLIGSTSSFCLISGSSVQWSDPLPECREIYCTPPPKIKNGKHTFSEVEVFEYLDAVTYSCDPAPGPDPFSLIGESTIYCGDNSVWSRAAPECKVVKCRFPVVENGKQISGFGKKFYYKATVMFECDKGFYLDGSDTIVCDSNSTWDPPVPKCLKVL , please.
result: 0.5
